Each recorded value in this set is attributed to patent US12012412B2.

Assay Protocol: Solubility of Solid Form A and amorphous Compound X in various solvents at room temperature
Assay type: physicochemical
Measurement Parameters: dioxane, organic solvent or mixture
Readout Kind: solubility

>>> result("C[C@@H]1CN(Cc2ncccn2)C[C@H]1c1nc2c(cnn2C2CCOCC2)c(=O)[nH]1 [Solid Form A]")
"> 46.3 mg/mL"

----------
Assay Protocol: Solubility of Solid Form A and amorphous Compound X in various solvents at room temperature
Assay type: physicochemical
Measurement Parameters: heptane, organic solvent or mixture
Readout Kind: solubility

>>> result("C[C@@H]1CN(Cc2ncccn2)C[C@H]1c1nc2c(cnn2C2CCOCC2)c(=O)[nH]1 [Solid Form A]")
"600 µg/mL"
